biological target: Epidermal growth factor receptor (Homo sapiens) (UniProt P00533); assay: compounds binding epidermal growth factor receptor – biochemical, small-molecule microarray, 635 nm fluorescence, primary screen (AID 1104); conditions: EGFR binding, higher = more signal;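 note: score merges 667 nm emission intensity with spot signal to noise over triplicate slides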
Sequence (P00533 whole entry, looked up): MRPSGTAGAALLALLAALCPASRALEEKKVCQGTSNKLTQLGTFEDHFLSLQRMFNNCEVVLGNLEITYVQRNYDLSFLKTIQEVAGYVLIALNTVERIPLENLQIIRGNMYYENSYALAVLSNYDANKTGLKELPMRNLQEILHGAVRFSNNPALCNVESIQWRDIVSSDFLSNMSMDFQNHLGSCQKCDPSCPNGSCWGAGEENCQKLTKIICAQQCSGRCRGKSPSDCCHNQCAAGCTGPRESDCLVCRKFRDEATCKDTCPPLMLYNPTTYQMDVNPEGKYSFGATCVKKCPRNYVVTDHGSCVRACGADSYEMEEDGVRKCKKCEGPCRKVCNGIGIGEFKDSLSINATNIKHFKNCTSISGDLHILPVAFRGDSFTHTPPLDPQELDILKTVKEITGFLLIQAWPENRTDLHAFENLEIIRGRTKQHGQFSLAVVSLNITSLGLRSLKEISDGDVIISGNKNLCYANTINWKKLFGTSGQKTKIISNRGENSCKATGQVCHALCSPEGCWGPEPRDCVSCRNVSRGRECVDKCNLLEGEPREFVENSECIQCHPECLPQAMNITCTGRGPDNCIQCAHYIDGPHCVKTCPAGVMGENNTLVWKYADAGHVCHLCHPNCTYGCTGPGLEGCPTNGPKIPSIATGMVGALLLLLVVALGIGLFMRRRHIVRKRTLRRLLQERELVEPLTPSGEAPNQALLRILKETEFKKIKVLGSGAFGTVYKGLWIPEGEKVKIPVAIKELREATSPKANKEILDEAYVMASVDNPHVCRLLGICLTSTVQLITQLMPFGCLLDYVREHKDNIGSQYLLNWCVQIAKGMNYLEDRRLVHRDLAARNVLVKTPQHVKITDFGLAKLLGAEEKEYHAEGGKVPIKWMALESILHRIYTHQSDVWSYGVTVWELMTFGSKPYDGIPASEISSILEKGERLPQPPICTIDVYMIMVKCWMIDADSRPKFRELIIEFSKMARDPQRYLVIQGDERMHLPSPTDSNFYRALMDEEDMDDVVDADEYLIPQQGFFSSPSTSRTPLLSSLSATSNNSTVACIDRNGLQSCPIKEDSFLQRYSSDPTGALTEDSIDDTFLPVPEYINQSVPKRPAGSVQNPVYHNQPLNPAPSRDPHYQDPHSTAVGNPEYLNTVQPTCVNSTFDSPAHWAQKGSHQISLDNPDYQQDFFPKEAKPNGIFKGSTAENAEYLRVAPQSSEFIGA
Give composite z-score for every item shown.
Lab note: write the figure by itself, no unit.

Prompt: What value of composite z-score has been recorded for this entry: COc1ccccc1CN1C(=O)c2ccccc2[C@](Cc2ccccc2I)(C(=O)O)[C@@H]1c1ccc(CO)cc1
Response: 0.719

Prompt: What value of composite z-score has been recorded for this entry: CCOC(=O)C[C@H]1[C@H](OC(=O)c2ccc(-c3ccccc3)cc2)[C@@H](NC(=O)CC(C)C)c2cc(OCCCO)ccc2N1C(=O)c1ccc2ccccc2n1
Response: 0.239

Prompt: What value of composite z-score has been recorded for this entry: CC(C)N1C(=O)C[C@@](C(=O)O)(c2ccc([N+](=O)[O-])cc2)[C@H]1c1ccc(CO)cc1
Response: -1.12

Prompt: What value of composite z-score has been recorded for this entry: CCOC(=O)C1=C[C@@H](c2ccccc2)N(S(=O)(=O)c2ccc(C)cc2)[C@H]1c1ccc(OC)cc1
Response: 0.561

Prompt: What value of composite z-score has been recorded for this entry: O=C(c1ccccc1)N1C(=O)[C@]2(Cc3ccccc31)N=C(c1ccc(OCCCO)cc1)O[C@@H]2c1ccccc1
Response: 0.0998

Prompt: What value of composite z-score has been recorded for this entry: CC(C)NC(=O)[C@@]1(C)c2ccccc2C(=O)N(Cc2ccc(OC(F)(F)F)cc2)[C@H]1c1ccc(CO)cc1
Response: -1.43

Prompt: What value of composite z-score has been recorded for this entry: Cc1ccc(S[C@]2(C(=O)NC(C)C)CC(=O)N(Cc3cc(C(F)(F)F)cc(C(F)(F)F)c3)[C@@H]2c2ccc(CO)cc2)cc1
Response: -1.48
